Molecular target: KDR (human, UniProt P35968 20-1356)
Sequence (P35968 20-1356): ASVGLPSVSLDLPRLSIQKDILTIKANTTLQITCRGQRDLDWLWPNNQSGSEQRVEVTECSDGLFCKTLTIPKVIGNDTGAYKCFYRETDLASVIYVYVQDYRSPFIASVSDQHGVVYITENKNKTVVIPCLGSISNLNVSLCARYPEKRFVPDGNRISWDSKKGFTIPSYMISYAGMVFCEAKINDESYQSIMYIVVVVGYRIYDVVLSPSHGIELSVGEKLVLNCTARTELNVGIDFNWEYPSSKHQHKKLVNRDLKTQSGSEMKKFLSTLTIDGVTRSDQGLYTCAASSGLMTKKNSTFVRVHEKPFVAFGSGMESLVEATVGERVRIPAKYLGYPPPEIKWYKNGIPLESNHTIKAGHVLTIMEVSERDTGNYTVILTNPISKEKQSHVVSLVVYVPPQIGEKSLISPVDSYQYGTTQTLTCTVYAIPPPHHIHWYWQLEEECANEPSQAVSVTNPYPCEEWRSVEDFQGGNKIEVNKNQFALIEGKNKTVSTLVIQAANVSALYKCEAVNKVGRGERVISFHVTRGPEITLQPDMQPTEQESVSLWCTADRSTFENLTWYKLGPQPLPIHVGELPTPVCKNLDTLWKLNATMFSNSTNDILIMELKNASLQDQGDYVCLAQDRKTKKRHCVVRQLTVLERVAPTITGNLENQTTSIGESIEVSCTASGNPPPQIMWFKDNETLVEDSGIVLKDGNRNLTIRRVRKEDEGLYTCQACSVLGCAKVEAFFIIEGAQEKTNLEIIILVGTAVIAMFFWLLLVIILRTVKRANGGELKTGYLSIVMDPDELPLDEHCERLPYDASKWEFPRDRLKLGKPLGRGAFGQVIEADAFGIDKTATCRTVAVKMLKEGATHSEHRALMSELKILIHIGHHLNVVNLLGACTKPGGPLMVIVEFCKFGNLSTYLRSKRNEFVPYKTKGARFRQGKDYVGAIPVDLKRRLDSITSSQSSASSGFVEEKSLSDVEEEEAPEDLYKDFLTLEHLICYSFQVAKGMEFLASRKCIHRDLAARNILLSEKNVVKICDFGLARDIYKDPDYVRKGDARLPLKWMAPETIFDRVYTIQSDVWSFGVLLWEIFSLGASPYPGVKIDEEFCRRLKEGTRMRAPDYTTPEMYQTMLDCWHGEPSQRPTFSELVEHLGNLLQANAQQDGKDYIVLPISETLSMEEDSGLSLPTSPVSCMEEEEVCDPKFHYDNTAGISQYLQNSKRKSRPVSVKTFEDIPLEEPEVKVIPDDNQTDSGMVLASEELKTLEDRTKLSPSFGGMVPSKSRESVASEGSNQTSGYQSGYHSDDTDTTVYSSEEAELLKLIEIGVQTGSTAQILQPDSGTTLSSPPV
Assay: cell-based or functional assay
assay.endpoint: Activity at 133 nM (% Inhibition), 24-hour Pre-incubation at 37° C., Average (%)
Provide the reading as a plain figure in %.

binder	endpoint.value
29A3 (antibody, V domains shown) VH: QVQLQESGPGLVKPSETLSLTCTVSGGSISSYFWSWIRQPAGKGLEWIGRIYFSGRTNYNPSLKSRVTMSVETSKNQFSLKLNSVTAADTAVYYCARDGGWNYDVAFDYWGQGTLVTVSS VL: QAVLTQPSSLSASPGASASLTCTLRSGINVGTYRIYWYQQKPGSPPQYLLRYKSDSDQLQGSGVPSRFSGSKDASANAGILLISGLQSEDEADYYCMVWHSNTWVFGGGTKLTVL	11

Here is another binder to look at.
Lookup: So what does the record say about Activity at 133 nM (% Inhibition), 24-hour Pre-incubation at 37° C., Average for 31E11 (antibody, V domains shown) VH: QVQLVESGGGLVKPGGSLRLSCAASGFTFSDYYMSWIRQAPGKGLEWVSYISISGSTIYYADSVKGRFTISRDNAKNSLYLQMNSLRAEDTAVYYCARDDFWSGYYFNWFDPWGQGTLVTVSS VL: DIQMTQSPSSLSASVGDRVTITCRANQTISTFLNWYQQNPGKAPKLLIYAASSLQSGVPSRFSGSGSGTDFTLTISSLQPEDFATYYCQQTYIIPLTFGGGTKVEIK ?
Found: 69
